meta.source: patent US9452986B2

Measured pIC50 accompanies every entry in the list below.
Target: recombinant human Nav1.7 (Homo sapiens (Human), UniProt Q15858)
Sequence (Q15858 whole entry): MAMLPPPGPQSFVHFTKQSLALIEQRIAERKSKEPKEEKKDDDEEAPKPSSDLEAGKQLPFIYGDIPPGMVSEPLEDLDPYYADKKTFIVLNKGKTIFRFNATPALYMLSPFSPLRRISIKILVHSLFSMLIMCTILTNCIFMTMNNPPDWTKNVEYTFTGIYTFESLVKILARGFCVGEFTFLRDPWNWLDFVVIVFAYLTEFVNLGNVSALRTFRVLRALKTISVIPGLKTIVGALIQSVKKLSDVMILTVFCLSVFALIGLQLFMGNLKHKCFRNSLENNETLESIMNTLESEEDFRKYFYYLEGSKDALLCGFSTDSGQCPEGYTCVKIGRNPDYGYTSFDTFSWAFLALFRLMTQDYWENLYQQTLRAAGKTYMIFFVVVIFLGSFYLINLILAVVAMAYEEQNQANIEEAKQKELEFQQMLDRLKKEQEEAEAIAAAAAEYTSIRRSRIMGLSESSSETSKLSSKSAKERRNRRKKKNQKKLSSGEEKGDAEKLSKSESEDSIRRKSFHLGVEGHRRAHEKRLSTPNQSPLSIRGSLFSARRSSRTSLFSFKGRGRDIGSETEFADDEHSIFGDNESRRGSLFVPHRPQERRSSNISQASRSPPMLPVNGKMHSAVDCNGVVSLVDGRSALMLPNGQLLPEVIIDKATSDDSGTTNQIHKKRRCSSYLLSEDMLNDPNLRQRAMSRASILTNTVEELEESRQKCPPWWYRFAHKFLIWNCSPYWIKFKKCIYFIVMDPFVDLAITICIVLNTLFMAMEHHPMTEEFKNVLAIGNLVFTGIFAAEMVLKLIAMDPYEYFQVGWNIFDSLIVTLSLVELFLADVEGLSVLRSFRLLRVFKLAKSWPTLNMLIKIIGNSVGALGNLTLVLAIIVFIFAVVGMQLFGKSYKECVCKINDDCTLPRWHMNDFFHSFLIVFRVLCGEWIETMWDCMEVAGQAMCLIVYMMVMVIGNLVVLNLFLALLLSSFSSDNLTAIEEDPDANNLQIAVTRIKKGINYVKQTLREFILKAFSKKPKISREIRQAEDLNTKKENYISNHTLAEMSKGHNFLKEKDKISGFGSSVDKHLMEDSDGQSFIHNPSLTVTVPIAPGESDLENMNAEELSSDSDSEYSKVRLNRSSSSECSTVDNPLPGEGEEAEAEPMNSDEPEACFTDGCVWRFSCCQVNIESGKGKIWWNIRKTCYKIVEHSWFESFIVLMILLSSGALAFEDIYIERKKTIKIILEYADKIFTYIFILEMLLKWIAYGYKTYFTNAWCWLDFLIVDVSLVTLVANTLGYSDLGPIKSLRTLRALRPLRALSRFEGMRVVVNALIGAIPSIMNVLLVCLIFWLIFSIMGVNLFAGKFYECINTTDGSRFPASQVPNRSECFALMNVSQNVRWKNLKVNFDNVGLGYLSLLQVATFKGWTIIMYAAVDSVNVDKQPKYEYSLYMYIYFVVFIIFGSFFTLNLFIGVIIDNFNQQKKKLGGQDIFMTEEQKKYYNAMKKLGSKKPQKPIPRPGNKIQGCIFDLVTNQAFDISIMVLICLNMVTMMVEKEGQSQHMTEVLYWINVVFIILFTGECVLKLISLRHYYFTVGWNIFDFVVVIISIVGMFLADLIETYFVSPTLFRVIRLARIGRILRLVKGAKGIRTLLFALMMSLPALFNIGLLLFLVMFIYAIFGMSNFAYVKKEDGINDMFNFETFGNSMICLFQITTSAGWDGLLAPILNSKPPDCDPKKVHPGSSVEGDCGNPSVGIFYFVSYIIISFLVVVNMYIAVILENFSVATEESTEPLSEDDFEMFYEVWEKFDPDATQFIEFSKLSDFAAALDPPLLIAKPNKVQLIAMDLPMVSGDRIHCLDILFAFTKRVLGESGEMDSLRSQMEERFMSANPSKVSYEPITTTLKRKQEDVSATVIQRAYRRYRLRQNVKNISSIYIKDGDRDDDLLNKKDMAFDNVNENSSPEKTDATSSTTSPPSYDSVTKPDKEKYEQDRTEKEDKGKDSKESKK
Experiment: FRET-based membrane potential assay, recombinant human sodium channel Nav1.7
Format: cell-based
Settings: HEK293 cells stably expressing recombinant human Nav1.7; veratridine + scorpion venom depolarization; read-out: FRET-Membrane Potential Nav1.7 IC50
Conceptually, pIC50 converts a concentration in mol/L into minus its log10.

Answered cases to consult:
* O=C(NC1CCOCC1)c1ccc2cc(Oc3ccc(C(F)(F)F)cn3)ccc2n1 | 6.25
* CC(C)[C@@H]1CN(C(=O)c2ccc3cc(Oc4ccc(C(F)(F)F)cn4)ccc3n2)CCN1 | 6.40

Per the record, N#Cc1ccc(Oc2ccc3nc(C(=O)NCc4cccnc4)ccc3c2)cc1 has pIC50 of 5.82

Reported pIC50 ( O=C(NCC1(O)CCOCC1)c1ccc2cc(Oc3ccc(C(F)(F)F)cn3)ccc2n1 ) = 6.00
